target.or.test.system: T1, human CD276 protein (human, UniProt Q5ZPR3 29-534)
T1 construct: whole, on cells; for SKOV3 and the other cancer lines the protein is the cells' own; also called B7-H3; B7H3
T1 sequence (looked up): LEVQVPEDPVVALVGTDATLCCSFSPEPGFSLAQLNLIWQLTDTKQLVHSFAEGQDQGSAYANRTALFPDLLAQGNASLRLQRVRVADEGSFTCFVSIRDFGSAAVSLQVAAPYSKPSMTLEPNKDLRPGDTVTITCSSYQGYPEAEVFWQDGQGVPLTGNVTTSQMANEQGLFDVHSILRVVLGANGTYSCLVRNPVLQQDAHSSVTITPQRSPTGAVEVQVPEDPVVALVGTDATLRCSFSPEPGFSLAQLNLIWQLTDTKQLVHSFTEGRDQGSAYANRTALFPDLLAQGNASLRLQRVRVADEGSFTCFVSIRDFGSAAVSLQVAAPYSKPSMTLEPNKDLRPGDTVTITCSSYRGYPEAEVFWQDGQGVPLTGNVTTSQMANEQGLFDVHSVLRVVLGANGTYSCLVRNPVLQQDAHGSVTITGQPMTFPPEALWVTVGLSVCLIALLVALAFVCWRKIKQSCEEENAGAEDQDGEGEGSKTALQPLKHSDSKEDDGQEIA
assay.info: FACS on CHO-S-hCD276 cells
Quick list: FACS MFI per entry.
// return just the number, without any unit appended

Use the examples below as a reference point.
21-B3-B1-H5 (antibody, V domains shown, mouse monoclonal antibody (hybridoma)) VH: QIQLVQSGPELKKPGETVKISCKASGYIFRNYGMNWVKQAPGKGLKWMGWINSYTGKPTYVDDFKGRFAFSLETSASTAYLQINNLKNEDMATYFCARDDGYWYTMDYWGQGTSVTVSS VL: DVVMTQTPLSLPVSLGDQASISCRSSQSLVHSNGHTYLHWYLQKPGQSPKLLIYKVSNRFSGVPDRFSGSGSGTDFTLKISRVEAEDLGVYFCSQSTHVPWTFGGGTKLEIK | 71500
18-F9-D8-G7 (antibody, V domains shown, mouse monoclonal antibody (hybridoma)) VH: EVQLQQSGPELVRPGVSVKISCKGSGYTFTDYAMHWVKQSHAQSLEWIGIINTYSGDTNYNQKFKGKATMTVDKSSSTAYMGLARLTSEDSAIFYCARGGGNYPYWYFDVWGAGTTVTVSS VL: ENVLTQSPAIMSASPGEKVTMTCRASSSVSSSYLHWYQQKSGDSPKLWIYSTSNLASGVPARFSGSGSGTSYSLTISSVEAEDAATYYCQQFSVYPLTFGAGTKLEIK | 127000

Assign FACS MFI to the following record: 13-E4-G9-A4 (antibody, V domains shown, mouse monoclonal antibody (hybridoma)) VH: EVMLVESGGGLVKPGGSLKFSCAASGFTFITYAMSWVRQTPEKRLEWVATISGGGIDTYYPDSVKGRFTISRDNAKNTLYLQVNSLRSEDTAMYYCTRQGSQGWGAMDYWGQGTSVTVSS VL: QIVLTQSPPIMSASPGERVTMTCRASSRVSFMHWYQQKSGTSPRRWIYETSKLASGVPDRFSGSVSGTSYSLTISSMEAEDAATYYCQQWSSNPLTFGAGTKLELK 149000
